test name: Pharmacokinetics (PK) studies in rats, single oral dose
Type: in vivo
study conditions: male, Sprague-Dawley, TML-6 in rat plasma, 25.0 mg/kg single dose, 0.5% MC suspension
observable: Cmax (ng/mL)
Entry rule: numbers only, all in ng/mL.

Item: `CCN(CC)C(=O)CC(C)(C(=O)/C=C/c1ccc(OC)c(OC)c1)C(=O)/C=C/c1ccc(OC)c(OC)c1` | Cmax: 25.3

* * *

test name: Pharmacokinetics (PK) studies in rats, single oral dose
Type: in vivo
study conditions: male, Sprague-Dawley, TML-6 in rat plasma, 25.0 mg/kg single dose, 0.5% MC suspension
observable: AUC(0-inf)
Your answer should be a number followed by the unit of measure.

// field: AUC(0-inf); key: `CCN(CC)C(=O)CC(C)(C(=O)/C=C/c1ccc(OC)c(OC)c1)C(=O)/C=C/c1ccc(OC)c(OC)c1` ; value = 73.6 ng·h/mL
